melting point for assorted compounds

# smilesStructure, result
records = [
    ("CC(C)n1nc(-c2cc(Cl)c(N)nc2-c2ccccc2)ccc1=O", "207 to 208 °C"),
]

# melting point (compound: COC(=O)c1nc(-c2ccccc2)c(-c2ccc(=O)n(C(C)C)n2)cc1C#N ) is 136 to 138 °C

# melting point (compound: CC(C)n1nc(-c2cc(I)c(N)nc2-c2ccccc2)ccc1=O ) is 196 to 197 °C

# melting point (compound: CC(C)n1nc(-c2cc(C#N)c(N)nc2-c2ccccc2)ccc1=O ) is 197 to 198 °C

# melting point (compound: CC(C)n1nc(-c2cc(C(=O)NCCO)cnc2-c2ccccc2)ccc1=O ) is 165 to 167 °C

# melting point (compound: CC(C)n1nc(-c2cc(C(=O)O)c(=O)[nH]c2-c2ccccc2)ccc1=O ) is 212 to 215 °C

# melting point (compound: CNC(=O)c1cnc(-c2ccccc2)c(-c2ccc(=O)n(C(C)C)n2)c1 ) is 212 to 213 °C

# melting point (compound: CC(C)n1nc(-c2cc(-c3ccccc3)c(N)nc2-c2ccccc2)ccc1=O ) is 208 to 209 °C

# melting point (compound: CC(C)n1nc(-c2c(-c3ccccc3)nc(Cl)c(N)c2Cl)ccc1=O ) is 186 to 188 °C

# melting point (compound: CC(C)n1nc(-c2cc(C#N)c(C(N)=O)nc2-c2ccccc2)ccc1=O ) is 221 to 223 °C

# melting point (compound: CC(C)n1nc(-c2ccc(=O)[nH]c2-c2ccccc2)ccc1=O ) is 107 to 109 °C

# melting point (compound: CC(C)n1nc(-c2cc(C#N)c(=O)[nH]c2-c2ccccc2)ccc1=O ) is > 250 °C

# melting point (compound: CC(C)n1nc(-c2cc(C(N)=O)c(Cl)nc2-c2ccccc2)ccc1=O ) is 199 to 200 °C

# melting point (compound: CC(C)n1nc(-c2cc(C(=O)NCCN3CCOCC3)cnc2-c2ccccc2)ccc1=O ) is 162 to 163 °C

# melting point (compound: CC(=O)Nc1cnc(-c2ccccc2)c(-c2ccc(=O)n(C(C)C)n2)c1 ) is 207 to 208 °C

# melting point (compound: CC(C)n1nc(-c2cc(Br)c(N)nc2-c2ccccc2)ccc1=O ) is 174 to 176 °C

# melting point (compound: CC(C)n1nc(-c2cc(-n3cccc3)cnc2-c2ccccc2)ccc1=O ) is 189 to 190 °C

###

# systemUnderTest: UniProt:P29274
# Sequence (P29274 whole entry): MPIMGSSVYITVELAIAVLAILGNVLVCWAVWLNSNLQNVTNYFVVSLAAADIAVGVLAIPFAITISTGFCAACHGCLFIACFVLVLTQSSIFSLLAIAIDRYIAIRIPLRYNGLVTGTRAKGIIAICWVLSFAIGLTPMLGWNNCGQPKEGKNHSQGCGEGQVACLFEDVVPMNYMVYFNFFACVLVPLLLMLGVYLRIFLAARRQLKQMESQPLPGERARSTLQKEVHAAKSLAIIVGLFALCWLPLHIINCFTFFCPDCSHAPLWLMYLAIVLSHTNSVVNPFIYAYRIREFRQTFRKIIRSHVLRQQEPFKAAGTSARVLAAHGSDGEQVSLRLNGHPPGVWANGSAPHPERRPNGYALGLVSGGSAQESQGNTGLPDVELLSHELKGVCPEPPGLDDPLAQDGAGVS
# assayProtocol: Adenosine antagonistic activity: radioligand binding with [3H]CGS 21680 (20 nM)
propertyLabel: Ki (nM)

Worked examples follow.
# molecule, unitDescriptor, Ki
measured = [
    ("CC(C)n1nc(-c2cc(Cl)c(N)nc2-c2ccc(F)cc2)ccc1=O [Example 74]", "nM", 1.28),
    ("CC(C)n1nc(-c2cc(-c3ccn[nH]3)cnc2-c2ccccc2)ccc1=O [Example 24]", "nM", 2.7),
    ("CC(C)n1cc(-c2cc(Cl)c(N)nc2-c2ccccc2)cc(Cl)c1=O [Example 119]", "nM", 2.06),
]

I: CC(C)n1nc(-c2cc(O)cnc2-c2ccccc2)ccc1=O [Example 53]
II: CC(C)n1nc(-c2cc(Br)c(N)nc2-c2ccccc2)ccc1=O [Example 33]
Given I and II , report the one with the higher recorded Ki. Refer to your chosen entry by its label in the reply.
I

P: CC(C)n1nc(-c2cc(C#N)c(N)nc2-c2ccccc2)ccc1=O [Example 3]
Q: CC(C)n1nc(-c2cc(-c3nc(-c4ccccc4)cs3)c(N)nc2-c2ccccc2)ccc1=O [Example 40]
R: CC(C)n1nc(-c2cc(NC(=O)c3ccccc3)cnc2-c2ccccc2)ccc1=O [Example 27]
Number of molecules to sort: 3. Sort criterion: Ki, ascending. As an answer, provide the labels arranged in the order called for.
P, R, Q
